Test system: biotinyl-Ile-oxazolone
Assay: self-aminoacylation, catalytic enhancement (BIO) (fold over background); higher = more active; k-Seq, kA / k0A0; sequences stand for … in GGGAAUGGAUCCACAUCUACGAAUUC…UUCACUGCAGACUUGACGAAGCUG
Variants at the floor of the assay were thinned out.
I'd be grateful if you could share measured self-aminoacylation for these entries.
Answer as a number with no unit attached.

Query :: Quick one: self-aminoacylation of CUACUUCAAACAUACGGUCUG [Fam1A.1 aminoacylation ribozyme variant] ?
Result :: 0.776

Query :: How about this sequence: CCACACUUCAACCAAUCGGCC [Fam1B.1 aminoacylation ribozyme variant]
Result :: 2.12

Query :: Try this sequence next: CAACUUCAAACAAUAGGUCUG [Fam1A.1 aminoacylation ribozyme variant]
Result :: 1.03

Query :: Can you check AUCCACCUAGGUCAUCGGGUC [Fam2.2 aminoacylation ribozyme variant] next?
Result :: 1.72

Query :: Do the same for CUACUUGAAACAAUCGGACUG [Fam1A.1 aminoacylation ribozyme variant] please
Result :: 0.922

Query :: Moving on to the next sequence: CAACACCUCAAGCAAUCGGUC [Fam1B.1 aminoacylation ribozyme variant]
Result :: 0.947

Query :: Record: AUUCAGCCAGGUCAUCGGGUG [Fam2.2 aminoacylation ribozyme variant]
Result :: 5.25

Query :: Same question, AUGCACCUAGGUCAGCGGGUG [Fam2.2 aminoacylation ribozyme variant] this time
Result :: 3.27

Query :: Entry AUUACCAUGGUUAUCGAGUGA [Fam2.1 aminoacylation ribozyme variant] please
Result :: 4.38

Query :: Lookup AAGUUGGCUAAUAGCCGCAAG [Fam3.1 aminoacylation ribozyme variant]
Result :: 1.89

Query :: Check AUUCACCUUGUUCAUCGGGUG [Fam2.2 aminoacylation ribozyme variant] too.
Result :: 2.01

Query :: Another sequence: ACACACUUCAAGCAAUCGGGC [Fam1B.1 aminoacylation ribozyme variant]
Result :: 2.48

Query :: Also need AUUACCCUGGUCAUGGAGUCA [Fam2.1 aminoacylation ribozyme variant] , thanks.
Result :: 0.907

Query :: Then what about the sequence CUACUUCACAAAAUCGGUCUG [Fam1A.1 aminoacylation ribozyme variant] ?
Result :: 0.985

Query :: Query UCACACUUCCAGCAAUCGGUC [Fam1B.1 aminoacylation ribozyme variant] next
Result :: 1.19

Query :: Can you handle AAUUUUGCUAAUAGUCGCAAC [Fam3.1 aminoacylation ribozyme variant] next?
Result :: 1.64

Query :: Entry to check: AGUCACCUAGGUCAUCGGCUG [Fam2.2 aminoacylation ribozyme variant]
Result :: 2.5

Query :: Please give the result for AAGUUUUCUAAUCGUCGCAAG [Fam3.1 aminoacylation ribozyme variant] too.
Result :: 1.75

###

System: biotinyl-Trp-oxazolone
Assay: self-aminoacylation, catalytic enhancement (BWO) (fold over background); higher = more active; k-Seq, kA / k0A0; sequences stand for … in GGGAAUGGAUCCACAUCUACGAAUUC…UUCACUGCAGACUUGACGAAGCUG
Fewer inactive variants are shown than the library holds.
measured parameter: self-aminoacylation
Could you respond with only the numeric value?

Query :: Sample AUACACCUAGGUCAUCGGGUG [Fam2.2 aminoacylation ribozyme variant] — what was its self-aminoacylation?
Result :: 4.29

Query :: Thanks! And AAGUUUGCUAGUAGUCGCAAA [Fam3.1 aminoacylation ribozyme variant] ?
Result :: 2.13

Query :: Thanks! And CUCCUUCAAACCAUCGGUCUG [Fam1A.1 aminoacylation ribozyme variant] ?
Result :: 0.905

Query :: CGACACUUCAAACAAUCGGUC [Fam1B.1 aminoacylation ribozyme variant] , same question.
Result :: 12.5

Query :: Please answer likewise for UUUCACCUAGGUCAUCGGGUA [Fam2.2 aminoacylation ribozyme variant]
Result :: 21.2

Query :: Please do the same for CGACACUUCAAGCAAUCGGAC [Fam1B.1 aminoacylation ribozyme variant] as well.
Result :: 1.31

Query :: Same for CUAUUUCAAACAAUCGGUCUC [Fam1A.1 aminoacylation ribozyme variant]
Result :: 3.67

Query :: And for CCACACUUCAAGCGAGCGGUC [Fam1B.1 aminoacylation ribozyme variant] ?
Result :: 0.744

###

Tested on: biotinyl-Ile-oxazolone
Experiment: self-aminoacylation, catalytic enhancement (BIO) (fold over background); higher = more active; k-Seq, kA / k0A0; sequences stand for … in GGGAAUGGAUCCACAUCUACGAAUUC…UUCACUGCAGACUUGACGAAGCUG
Variants at the floor of the assay were thinned out.
measured parameter: self-aminoacylation
Response field accepts a number only; no unit should be typed.

Query :: Which self-aminoacylation value belongs to CUACACUUUAAGCAAUCGGUC [Fam1B.1 aminoacylation ribozyme variant] ?
Result :: 0.768

Query :: Input CCAGACUUCAAGCAAUCGUUC [Fam1B.1 aminoacylation ribozyme variant]
Result :: 1.06

Query :: Same again, this time with CCACACUUCAAGCAAUUGGCC [Fam1B.1 aminoacylation ribozyme variant]
Result :: 2.77

Query :: Quick one: UGUACCCUGGUCAUCGAGUGA [Fam2.1 aminoacylation ribozyme variant]
Result :: 4.06

Query :: Next sequence: AUUACCCUGGACAUCGAGUUA [Fam2.1 aminoacylation ribozyme variant]
Result :: 0.805

Query :: Next up: AUGUUUGGUAAUAGUCGCAAG [Fam3.1 aminoacylation ribozyme variant]
Result :: 1.92

Query :: One more sequence: GUUCCCCUGGUCAUCGAGUGA [Fam2.1 aminoacylation ribozyme variant]
Result :: 3.35

Query :: Entry ACACACUUCAAGCAAUUGGUC [Fam1B.1 aminoacylation ribozyme variant] please
Result :: 1.09

###

System: biotinyl-Val-oxazolone
Experiment: self-aminoacylation, catalytic enhancement (BVO) (fold over background); higher = more active; k-Seq, kA / k0A0; sequences stand for … in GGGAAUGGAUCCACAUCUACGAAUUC…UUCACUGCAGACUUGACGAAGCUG
Variants at the floor of the assay were thinned out.
Mark true for reported self-aminoacylation of 0.9 or greater; mark false for anything smaller.

Query :: Please tell me: is the sequence CUUCACCUAGGCCAUCGGGUG [Fam2.2 aminoacylation ribozyme variant] at or over 0.9 in terms of self-aminoacylation?
Result :: true

Query :: Lookup AAGUUUGCUAGUAGUCGCAUG [Fam3.1 aminoacylation ribozyme variant]
Result :: false

Query :: Ok, now AGGUUUGCUAAUAGGCGCAAG [Fam3.1 aminoacylation ribozyme variant]
Result :: false

Query :: Here is the next sequence: CUACUUCAGACAAUCGGUCUU [Fam1A.1 aminoacylation ribozyme variant]
Result :: true

Query :: Same again, this time with CUUCUUCAAACAAUCGUUCUG [Fam1A.1 aminoacylation ribozyme variant]
Result :: false

Query :: Thanks! And AAUUUUGCUAAUAGGCGCAAG [Fam3.1 aminoacylation ribozyme variant] ?
Result :: true

Query :: What about this sequence? CUUUUUCAAACAAUCGGUCUG [Fam1A.1 aminoacylation ribozyme variant]
Result :: false

Query :: Next sequence: CUUACCCUGGUCAUCCAGUGA [Fam2.1 aminoacylation ribozyme variant]
Result :: true

Query :: Lookup AUUCACCUAGGUCUUCGCGUG [Fam2.2 aminoacylation ribozyme variant]
Result :: true

###

System: biotinyl-Met-oxazolone
Test: self-aminoacylation, catalytic enhancement (BMO) (fold over background); higher = more active; k-Seq, kA / k0A0; sequences stand for … in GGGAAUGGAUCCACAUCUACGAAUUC…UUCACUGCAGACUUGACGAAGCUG
Variants at the floor of the assay were thinned out.
measured parameter: self-aminoacylation
Keep it simple and answer with nothing but the number.

Query :: Given AUUCACCAAGGUCAUCGGUUG [Fam2.2 aminoacylation ribozyme variant] , state its recorded self-aminoacylation.
Result :: 1.55

Query :: Try this sequence too: CUACUUCAAACAAUCGGGCGG [Fam1A.1 aminoacylation ribozyme variant]
Result :: 1.53

Query :: Lookup AUUCACCUAAGUCAACGGGUG [Fam2.2 aminoacylation ribozyme variant]
Result :: 3.57

Query :: Param item: AUUUACCCAGGUCAUCGGGUG [Fam2.2 aminoacylation ribozyme variant]
Result :: 5.07

Query :: # repeat for AUUCACCUAGGUCAAUGGGUG [Fam2.2 aminoacylation ribozyme variant]
Result :: 1.75

###

Test system: biotinyl-Phe-oxazolone
Test: self-aminoacylation, catalytic enhancement (BFO) (fold over background); higher = more active; k-Seq, kA / k0A0; sequences stand for … in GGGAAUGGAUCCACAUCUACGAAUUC…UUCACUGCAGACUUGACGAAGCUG
This sample holds only a part of the variants without activity.
measured parameter: self-aminoacylation
Form: value (number only, do not type unit).

Query :: Please tell me: self-aminoacylation of CUGCUUCAAACAAUCGGUCUC [Fam1A.1 aminoacylation ribozyme variant] , system biotinyl-Phe-oxazolone?
Result :: 107

Query :: Follow-up item: AAGUUUUCUAAUAGUCCCAAG [Fam3.1 aminoacylation ribozyme variant]
Result :: 2.7

Query :: Also need AAGUUUGCGAAUAGUCGCAAA [Fam3.1 aminoacylation ribozyme variant] , thanks.
Result :: 1.97

Query :: Also need CCACACUUCAAGCAGCCGGUC [Fam1B.1 aminoacylation ribozyme variant] , thanks.
Result :: 0.916

Query :: And AGGUUUUCUAAUAGUCGCAAG [Fam3.1 aminoacylation ribozyme variant] ?
Result :: 2.83

Query :: Cool, now UUACUUCAAACAAUGGGUCUG [Fam1A.1 aminoacylation ribozyme variant]
Result :: 0.83

Query :: Record: UCACAAUUCAAGCAAUCGGUC [Fam1B.1 aminoacylation ribozyme variant]
Result :: 1.8

Query :: Would you kindly repeat that for AUCCACCUAGGUCAUCGGGAG [Fam2.2 aminoacylation ribozyme variant] ?
Result :: 1.03

Query :: And AAUUUUGCUAAUAGUAGCAAG [Fam3.1 aminoacylation ribozyme variant] ?
Result :: 1.11

Query :: Queued: UUUCACCUAGGUCAUCGGGCG [Fam2.2 aminoacylation ribozyme variant]
Result :: 4.77

Query :: Repeat for the following sequence: AUUCACCUAGGUCGUCGGGUG [Fam2.2 aminoacylation ribozyme variant]
Result :: 9.32

Query :: Next up: CUACUCCAAACAAUCGGCCUG [Fam1A.1 aminoacylation ribozyme variant]
Result :: 3.54

Query :: Also, AUAACCAUGGUCAUCGAGUGA [Fam2.1 aminoacylation ribozyme variant] please.
Result :: 23.8

Query :: Then what about the sequence AUUCAACUAGGUCGUCGGGUG [Fam2.2 aminoacylation ribozyme variant] ?
Result :: 6.9

Query :: Query CUACUUCAAACAAUAGGUCUC [Fam1A.1 aminoacylation ribozyme variant] next
Result :: 1.03

Query :: Next sequence up: AUUCACUUAGGUCAUCGGGAG [Fam2.2 aminoacylation ribozyme variant]
Result :: 0.746

Query :: Queued: ACUCACCUAGGUCAACGGGUG [Fam2.2 aminoacylation ribozyme variant]
Result :: 8.54

Query :: Moving on to AGUACCAUGGUCAUCGAGUGA [Fam2.1 aminoacylation ribozyme variant]
Result :: 29.9

Query :: // next record AAGUAUGCUAAUAGGCGCAAG [Fam3.1 aminoacylation ribozyme variant]
Result :: 0.856

Query :: // same read-out, input: AUUCACCGAGGUCAUCGGAUG [Fam2.2 aminoacylation ribozyme variant]
Result :: 0.641

Query :: Continue with CUACUUCAAACAAUGGGUCAG [Fam1A.1 aminoacylation ribozyme variant]
Result :: 0.92

Query :: Moving on to AUUACCCUGGUAAUCGAGGGA [Fam2.1 aminoacylation ribozyme variant]
Result :: 0.55

Query :: Would you mind doing CCACACUUCAAGCAAUAGGAC [Fam1B.1 aminoacylation ribozyme variant] as well?
Result :: 0.856

Query :: # iterate: CCACACGUCAAGCCAUCGGUC [Fam1B.1 aminoacylation ribozyme variant]
Result :: 1.11

Query :: Also AUUCACCUAUGCCAUCGGGUG [Fam2.2 aminoacylation ribozyme variant] , if possible.
Result :: 18.9

Query :: And AUUACCCUGAUCAUCGGGUGA [Fam2.1 aminoacylation ribozyme variant] ?
Result :: 67.3

Query :: And for UCACACUUCAAUCAAUCGGUC [Fam1B.1 aminoacylation ribozyme variant] ?
Result :: 35.5

Query :: // next record AAGUUAUCUAAUAGUCGCAAG [Fam3.1 aminoacylation ribozyme variant]
Result :: 2.66

Query :: What would you report for AAUACCCUUGUCAUCGAGUGA [Fam2.1 aminoacylation ribozyme variant] ?
Result :: 5.23

Query :: Now consider AUUCACAUAGGUCAUCGGGUA [Fam2.2 aminoacylation ribozyme variant] .
Result :: 22.7

Query :: Now consider AUUCACCUAGGCCAUUGGGUG [Fam2.2 aminoacylation ribozyme variant] .
Result :: 34.9

Query :: For AUGACCCUGGUCAGCGAGUGA [Fam2.1 aminoacylation ribozyme variant] then?
Result :: 24.2

Query :: Now give it for AUUACCCUAGUUAUCGAGUGA [Fam2.1 aminoacylation ribozyme variant] too.
Result :: 50.7

Query :: AGUCACCUAGGUUAUCGGGUG [Fam2.2 aminoacylation ribozyme variant] ?
Result :: 32.2

Query :: Now the sequence AUUACCCUGGUUACCGAGUGA [Fam2.1 aminoacylation ribozyme variant]
Result :: 78.8
